Measured log10 EC90 of individual entries
Test system: HCV replicon 1b
protocol.text: Cell-based HCV replicon assay (TaqMan), genotype 1b replicon
condition: Hepatitis C virus, 72 h, HCV 1b replicon cells, replicon RNA by TaqMan on day 3; EC90 = concentration for ΔCT=3.2 over baseline
Heads up, the numbers here are log10 of EC90 in nM units.

Item COC(=O)N[C@H](C(=O)N1C[C@H](F)C[C@H]1c1ncc(-c2ccc(C#Cc3ccc(-c4cnc([C@@H]5C[Si](C)(C)CN5C(=O)[C@@H](NC(=O)OC)C(C)C)[nH]4)cc3)cc2)[nH]1)C(C)C was tested on HCV replicon 1b; the reported log10 EC90 is -1.52

// log10 EC90 (HCV replicon 1b) for COC(=O)N[C@@H](C)C(=O)N1CCC[C@@H]1c1ncc(-c2ccc(-c3ccc(-c4cnc([C@H]5C[Si](C)(C)CN5C(=O)[C@H](C)NC(=O)OC)[nH]4)cc3)cc2)[nH]1 = 3.00

Query COC(=O)NC1(C(=O)N2CCC[C@@H]2c2ncc(-c3ccc(-c4ccc(-c5cnc([C@H]6C[Si](C)(C)CN6C(=O)C6(NC(=O)OC)CC6)[nH]5)cc4)cc3)[nH]2)CC1 on HCV replicon 1b; log10 EC90 returned: 3.00

The reported log10 EC90 value, HCV replicon 1b, for CC[C@H](NC(=O)OC)C(=O)N1CCC[C@H]1c1ncc(-c2ccc(-c3ccc(-c4cnc([C@@H]5C[Si](C)(C)CN5C(=O)[C@H](CC)NC(=O)OC)[nH]4)cc3)cc2)[nH]1 reads 1.26

Value (log10 EC90, HCV replicon 1b) for record COC(=O)N[C@H](C(=O)N1CCC[C@@H]1c1ncc(-c2ccc(-c3ccc(-c4cnc([C@H]5C[Si](C)(C)CN5C(=O)[C@@H](NC(=O)OC)c5ccccc5)[nH]4)cc3)cc2)[nH]1)c1ccccc1 = 1.04

More entries:
For COC(=O)N[C@H](C(=O)N1CCC[C@@H]1c1ncc(-c2ccc(-c3ccc(-c4cnc([C@H]5C[Si](C)(C)CN5C(=O)[C@@H](NC(=O)OC)C5CC5)[nH]4)cc3)cc2)[nH]1)C1CC1 on HCV replicon 1b, measured log10 EC90 was 3.00

Reported HCV replicon 1b log10 EC90 for item COC(=O)N[C@@H](Cc1cn(C)cn1)C(=O)N1CCC[C@H]1c1ncc(-c2ccc(-c3ccc(-c4cnc([C@@H]5C[Si](C)(C)CN5C(=O)[C@H](Cc5cn(C)cn5)NC(=O)OC)[nH]4)cc3)cc2)[nH]1 was 2.45

====

Each entry below carries its recorded EC90.
Test system: HCV replicon 1b
protocol.text: Cell-based HCV replicon assay (TaqMan), genotype 1b replicon
condition: Hepatitis C virus, 72 h, HCV 1b replicon cells, replicon RNA by TaqMan on day 3; EC90 = concentration for ΔCT=3.2 over baseline
Kindly provide the numeric value in nM only, without the unit symbol.

Summary line: COC(=O)N[C@H](C(=O)N1C[Si](C)(C)C[C@H]1c1ncc(-c2ccc(-c3ccc(-c4cnc([C@@H]5C[C@H]6C[C@H]6N5C(=O)[C@@H](NC(=O)OC)C(C)C)[nH]4)cc3)cc2)[nH]1)C(C)C , HCV replicon 1b, reported EC90 = 0.002

More entries:
EC90 of COC(=O)N[C@@H](CC(C)(C)C)C(=O)N1CCC[C@H]1c1ncc(-c2ccc(-c3ccc(-c4cnc([C@@H]5C[Si](C)(C)CN5C(=O)[C@H](CC(C)(C)C)NC(=O)OC)[nH]4)cc3)cc2)[nH]1 , assay on HCV replicon 1b, is 0.03

Noted EC90 for COC(=O)N[C@H](C(=O)N1CCC[C@H]1c1cnc(-c2ccc3c(c2)[Si](C)(C)c2cc(-c4cnc([C@@H]5CCCN5C(=O)[C@@H](NC(=O)OC)C(C)C)[nH]4)ccc2-3)[nH]1)C(C)C , tested on HCV replicon 1b: 0.043

Let me check: COC(=O)N[C@@H](Cn1cccn1)C(=O)N1CCC[C@H]1c1ncc(-c2ccc(-c3ccc(-c4cnc([C@@H]5C[Si](C)(C)CN5C(=O)[C@H](Cn5cccn5)NC(=O)OC)[nH]4)cc3)cc2)[nH]1 , system HCV replicon 1b, measured EC90 is 139

So the reported EC90 for COC(=O)N[C@@H](CSC)C(=O)N1CCC[C@H]1c1ncc(-c2ccc(-c3ccc(-c4cnc([C@@H]5C[Si](C)(C)CN5C(=O)[C@H](CSC)NC(=O)OC)[nH]4)cc3)cc2)[nH]1 , on HCV replicon 1b, turned out to be 0.03

Short answer on HCV replicon 1b for COC(=O)NC1(C(=O)N2CCC[C@H]2c2ncc(-c3ccc(-c4ccc(-c5cnc([C@@H]6C[Si](C)(C)CN6C(=O)C6(NC(=O)OC)CCC6)[nH]5)cc4)cc3)[nH]2)CCC1 , EC90: 2.2

Record for COC(=O)N[C@@H](Cc1ccccc1)C(=O)N1CCC[C@H]1c1ncc(-c2ccc(-c3ccc(-c4cnc([C@@H]5C[Si](C)(C)CN5C(=O)[C@H](Cc5ccccc5)NC(=O)OC)[nH]4)cc3)cc2)[nH]1 under target or system HCV replicon 1b: EC90 reported as 923

COC(=O)N[C@H](C(=O)N1C[Si](C)(C)C[C@H]1c1nc(Cl)c(-c2ccc(-c3ccc(-c4[nH]c([C@@H]5C[C@H]6C[C@H]6N5C(=O)[C@@H](NC(=O)OC)C(C)C)nc4F)cc3)cc2)[nH]1)C(C)C tested on HCV replicon 1b gave EC90: 0.017

Observed EC90 on HCV replicon 1b, entry COC(=O)N[C@H](C(=O)N1C[Si](C)(C)C[C@H]1c1ncc(-c2ccc(-c3ccc(-c4cnc([C@@H]5[C@H]6CC[C@H](C6)N5C(=O)[C@@H](NC(=O)OC)C(C)C)[nH]4)cc3)cc2)[nH]1)C(C)C , equals 0.004

Lab note: compound COC(=O)N[C@H](Cc1c[nH]c2ccccc12)C(=O)N1CCC[C@H]1c1ncc(-c2ccc(-c3ccc(-c4cnc([C@@H]5C[Si](C)(C)CN5C(=O)[C@@H](Cc5c[nH]c6ccccc56)NC(=O)OC)[nH]4)cc3)cc2)[nH]1 tested on HCV replicon 1b; recorded EC90 was 1000

Reported EC90 (HCV replicon 1b) for entry COC(=O)N[C@H](C(=O)N1C[Si]2(CCCC2)C[C@H]1c1cnc(-c2ccc(-c3ccc(-c4cnc([C@@H]5CCCN5C(=O)[C@@H](NC(=O)OC)C(C)C)[nH]4)cc3)cc2)[nH]1)C(C)C is 0.006

So the reported EC90 for COC(=O)N[C@@H](Cn1ncnn1)C(=O)N1CCC[C@H]1c1ncc(-c2ccc(-c3ccc(-c4cnc([C@@H]5C[Si](C)(C)CN5C(=O)[C@H](Cn5ncnn5)NC(=O)OC)[nH]4)cc3)cc2)[nH]1 , on HCV replicon 1b, turned out to be 2.17

Record COC(=O)N[C@H](C(=O)N1CCC[C@H]1c1cnc(-c2ccc(-c3ccc(-c4cnc([C@@H]5C[Si](C)(C)CN5C(=O)[C@@H](NC(=O)OC)C(C)C)[nH]4)cc3)cc2)[nH]1)C(C)C / HCV replicon 1b, EC90 recorded as 0.005

Given the compound COC(=O)N[C@@H](C(=O)N1CCC[C@@H]1c1ncc(-c2ccc(-c3ccc(-c4cnc([C@H]5C[Si](C)(C)CN5C(=O)[C@H](NC(=O)OC)C5CCCOCC5)[nH]4)cc3)cc2)[nH]1)C1CCCOCC1 (stereo partly drawn) and test system HCV replicon 1b, the measured EC90 is 18.7

So the reported EC90 for COC(=O)N[C@H](C(=O)N1C[Si](C)(C)C[C@H]1c1ncc(-c2ccc(-c3ccc(-c4cnc([C@@H]5C[Si](C)(C)CN5C(=O)[C@@H](NC(=O)OC)C(C)C)[nH]4)cc3)cc2)[nH]1)C(C)C , on HCV replicon 1b, turned out to be 0.015

The compound COC(=O)N[C@H](C(=O)N1CC(F)(F)C[C@H]1c1ncc(-c2ccc(-c3ccc(-c4cnc([C@@H]5C[Si](C)(C)CN5C(=O)[C@@H](NC(=O)OC)C(C)C)[nH]4)cc3)cc2)[nH]1)C(C)C on HCV replicon 1b: EC90 was 0.007

Summary: CC(C)(C)OC(=O)N1CCC[C@H]1c1cnc(-c2ccc3c(c2)[Si](C)(C)c2cc(-c4cnc([C@@H]5CCCN5C(=O)OC(C)(C)C)[nH]4)ccc2-3)[nH]1 , HCV replicon 1b, EC90 = 467
